Test system: melanoma A375
assay remarks: Growth inhibition of tumor cells A375
Format: cell-based
condition set: Homo sapiens, A-375
readout label: IC50
Write down the value, and be sure its unit follows.

Specify the recorded IC50 for `COc1cc(N2CCC(N3CCN(C)CC3)CC2)ccc1Nc1nc(Nc2ccccc2S(=O)(=O)C(C)C)c2[nH]ccc2n1` , system: melanoma A375.
3760 nM

====

Collected IC50 values appear next to each entry.
target or test system: NPM-ALK-BaF3 (Homo sapiens)
Construct: expressed in transfected cells; host or cells: Ba/F3 cells; the other entry of the earlier key: NPM1 (P06748, Nucleophosmin)
assay remarks: Growth inhibition of NPM-ALK transformed BaF3 cells (MTS)
Assay type: cell-based
condition set: 48 hours, Table 11
Write the value in nM as a bare number.

COc1cc(N2CCC(N3CCN(C)CC3)CC2)ccc1Nc1nc(Nc2ccccc2S(=O)(=O)C(C)C)c2[nH]ccc2n1 [ID-3]    303
CCOc1cc(N2CCC(O)CC2)ccc1Nc1nc(Nc2ccccc2C(=O)OC)c2[nH]ccc2n1 [IG-10]    19600
CSc1ccccc1Nc1nc(Nc2ccc(S(N)(=O)=O)cc2)nc2cc[nH]c12 [IA-3]    12900

Quote NPM-ALK-BaF3 (Homo sapiens) IC50 for entry COC(=O)c1ccccc1Nc1nc(Nc2ccc(N3CCC(N4CCN(C)CC4)CC3)cc2OC)nc2cc[nH]c12 [IG-2] .
1430

Report IC50 from NPM-ALK-BaF3 (Homo sapiens) testing of CCC(C)OC(=O)c1ccccc1Nc1nc(Nc2ccc(N3CCN(C)CC3)cc2OC)nc2cc[nH]c12 (centres unmarked) [IH-1]
1560

Specify IC50 for CSc1ccccc1Nc1nc(Nc2ccc(N3CCC(O)CC3)cc2)nc2cc[nH]c12 [IA-2] , system NPM-ALK-BaF3 (Homo sapiens).
1030

Fetch value of IC50 on NPM-ALK-BaF3 (Homo sapiens) for COC(=O)c1ccccc1Nc1nc(Nc2ccc(S(N)(=O)=O)cc2)nc2cc[nH]c12 [IG-4] .
6100

Provide IC50, system NPM-ALK-BaF3 (Homo sapiens), entry COC(=O)c1ccccc1Nc1nc(Nc2ccc(N3CCN(C)CC3)cc2)nc2cc[nH]c12 [IG-6]
1740

====

target or test system: EML4-ALK (L1196M)-BaF3 (Homo sapiens, UniProt Q9UM73, L1196M)
Construct: expressed in transfected cells; host or cells: Ba/F3 cells; the other entry of the earlier key: EML4 (Q9HC35, Echinoderm microtubule-associated protein-like 4)
assay remarks: Growth inhibition of EML4-ALK (L1196M) transformed BaF3 cells (MTS)
Assay type: cell-based
condition set: 48 hours, Table 12, read-out: L1196M (IC50 nM)
Description: If compounds can inhibit the activity of ALK kinase or the activity of ALK signaling pathway, they can inhibit the growth of ALK transformed Ba/F3 cells. […] The broad-spectrum toxicity of compounds can be evaluated by determining the effect of the compounds on the growth of wild type BaF3 cells. […] 4) Calculation of IC50 value: the semi inhibitory concentration of the compound acting on the cells was calculated using GradPad Prism 5 software according to the cell inhibitory rate measured.
// reported IC50 per item

Study these solved cases before continuing.
COC(=O)c1cccc(Nc2nc(Nc3ccc(N4CCN(C)CC4)cc3OC)nc3ccn(C)c23)c1 [IIH-1]    1840 nM
COc1cc(N2CCN(C)CC2)ccc1Nc1nc(Nc2ccccc2S(C)(=O)=O)c2c(ccn2C)n1 [IIC-1]    ~5890 nM
Cn1ccc2nc(Nc3ccc(S(N)(=O)=O)cc3)nc(NCc3ccccc3S(C)(=O)=O)c21 [IIK-4]    > 10000 nM
CN1CCN(c2ccc(Nc3nc(NCc4ccccc4S(C)(=O)=O)c4c(ccn4C)n3)cc2)CC1 [IIK-5]    ~2560 nM
CN1CCN(c2ccc(Nc3nc(Nc4ccccc4S(C)(=O)=O)c4c(ccn4C)n3)cc2)CC1 [IIC-5]    4410 nM
CSc1ccccc1Nc1nc(Nc2ccc(N3CCC(O)CC3)cc2)nc2ccn(C)c12 [IIA-3]    161 nM

Using the record for COC(=O)c1ccccc1Nc1nc(Nc2ccc(N3CCC(O)CC3)cc2)nc2ccn(C)c12 [IIG-3] , state its measured IC50.
2790 nM

Please indicate IC50 recorded for CCOc1cc(C(=O)N2CCC(N3CCN(C)CC3)CC2)ccc1Nc1nc(Nc2ccccc2S(=O)(=O)C(C)C)c2c(ccn2C)n1 [IID-7]
~2780 nM

====

target or test system: EML4-ALK (L1196M)-BaF3 (Homo sapiens, UniProt Q9UM73, L1196M)
Construct: expressed in transfected cells; host or cells: Ba/F3 cells; the other entry of the earlier key: EML4 (Q9HC35, Echinoderm microtubule-associated protein-like 4)
assay remarks: Growth inhibition of EML4-ALK (L1196M) transformed BaF3 cells (MTS)
Type: cell-based
condition set: 48 hours, Table 12, read-out: L1196M (IC50 nM)
Listing of recorded IC50 by entry.
The answer is to be given in nM; state only the numeric part.

Sample answers from the record:
CC(C)Sc1ccccc1CNc1nc(Nc2ccc(N3CCC(O)CC3)cc2)nc2ccn(C)c12    1610
COC(=O)c1ccccc1Nc1nc(Nc2ccc(N3CCC(N4CCN(C)CC4)CC3)cc2OC)nc2ccn(C)c12    3730
CC(C)S(=O)(=O)c1ccccc1CNc1nc(Nc2ccc(N3CCN(C)CC3)cc2)nc2ccn(C)c12    1530
COC(=O)c1ccccc1Nc1nc(Nc2ccc(N3CCN(C)CC3)cc2OC)nc2ccn(C)c12    3440
COc1cc(N2CCC(N3CCN(C)CC3)CC2)ccc1Nc1nc(Nc2ccccc2S(=O)(=O)C(C)C)c2c(ccn2C)n1    391

Next compound, IC50 to be filled in.
Quote IC50 reported for `COC(=O)c1ccccc1Oc1nc(Nc2ccc(N3CCC(N4CCN(C)CC4)CC3)cc2OC)nc2ccn(C)c12` please.
2220

====

target or test system: NPM-ALK-BaF3 (Homo sapiens)
Construct: expressed in transfected cells; host or cells: Ba/F3 cells; the other entry of the earlier key: NPM1 (P06748, Nucleophosmin)
assay remarks: Growth inhibition of NPM-ALK transformed BaF3 cells (MTS)
Format: cell-based
condition set: 48 hours, Table 12
Method: The activity of compounds against ALK kinase was evaluated by inhibiting the growth of cellular ALK kinase EML4-ALK-BaF3, EML4-ALK (L1196M)-BaF3, NPM-ALK-BaF3, and wild type BaF3 (Proc. Natl. Acad. Sci. USA., 2006, 103, 3153-8.) The growth of cellular ALK kinase EML4-ALK-BaF3, EML4-ALK(L1196M)-BaF3, and NPM-ALK-BaF3 depends on their kinase activity. […] The broad-spectrum toxicity of compounds can be evaluated by determining the effect of the compounds on the growth of wild type BaF3 cells. […]
readout label: IC50

Examples from the recorded data:
CCOc1cc(N2CCC(O)CC2)ccc1Nc1nc(Nc2ccccc2S(C)(=O)=O)c2c(ccn2C)n1    > 10000 nM
COC(=O)c1ccccc1Oc1nc(Nc2ccc(N3CCN(C)CC3)cc2OC)nc2ccn(C)c12    > 10000 nM

Let us move to another entry and its IC50.
Please list IC50 recorded for the compound `COC(=O)c1ccccc1Oc1nc(Nc2ccc(N3CCC(O)CC3)cc2)nc2ccn(C)c12`
> 10000 nM

====

target or test system: EML4-ALK-BaF3 (Homo sapiens)
Construct: expressed in transfected cells; host or cells: Ba/F3 cells; the other entry of the earlier key: EML4 (Q9HC35, Echinoderm microtubule-associated protein-like 4)
assay remarks: Growth inhibition of EML4-ALK transformed BaF3 cells (MTS)
Assay type: cell-based
condition set: EML4-ALK-BaF3 cells, 48 hours, MTS; Table 11
Procedure: If compounds can inhibit the activity of ALK kinase or the activity of ALK signaling pathway, they can inhibit the growth of ALK transformed Ba/F3 cells. […] The broad-spectrum toxicity of compounds can be evaluated by determining the effect of the compounds on the growth of wild type BaF3 cells. […] 4) Calculation of IC50 value: the semi inhibitory concentration of the compound acting on the cells was calculated using GradPad Prism 5 software according to the cell inhibitory rate measured.
Items are presented alongside their recorded IC50.
Please reply with the bare figure in nM and do not write the unit itself.

Example entries and their recorded answers appear below.
CN1CCN(c2ccc(Nc3nc(Nc4ccccc4S(C)(=O)=O)c4[nH]ccc4n3)cc2)CC1 [IC-5]    4080
CNC(=O)c1ccccc1Nc1nc(Nc2ccc(N3CCC(N4CCN(C)CC4)CC3)cc2OC)nc2cc[nH]c12 [IJ-1]    4270

Give me measured IC50, please, for this compound: COC(=O)c1ccccc1Sc1nc(Nc2ccc(N3CCC(O)CC3)cc2)nc2cc[nH]c12 [IU-3]
4900

====

target or test system: EML4-ALK-BaF3 (Homo sapiens, UniProt Q9UM73)
Construct: expressed in transfected cells; host or cells: Ba/F3 cells; the other entry of the earlier key: EML4 (Q9HC35, Echinoderm microtubule-associated protein-like 4)
assay remarks: Growth inhibition of EML4-ALK transformed BaF3 cells (MTS)
Assay type: cell-based
condition set: EML4-ALK-BaF3 cells, 48 hours, MTS; Table 11
The entries below come with measured IC50 values attached.

Consider the following illustrative entries.
CNc1nc(Nc2ccc(N3CCC(N4CCN(C)CC4)CC3)cc2OC)nc2cc[nH]c12    > 10000 nM
CNc1nc(Nc2ccc(C(=O)N3CCOCC3)cc2OC)nc2cc[nH]c12    > 10000 nM
CS(=O)(=O)c1ccccc1CNc1nc(Nc2ccc(S(N)(=O)=O)cc2)nc2cc[nH]c12    > 10000 nM
CS(=O)(=O)c1ccccc1Nc1nc(Nc2ccc(N3CCC(O)CC3)cc2)nc2cc[nH]c12    > 10000 nM
CCNc1nc(Nc2ccc(N3CCC(O)CC3)cc2)nc2cc[nH]c12    > 10000 nM
COc1cc(N2CCC(N3CCN(C)CC3)CC2)ccc1Nc1nc(NCc2ccccc2SC)c2[nH]ccc2n1    ~2570 nM
COC(=O)c1ccccc1Nc1nc(Nc2ccc(N3CCC(O)CC3)cc2OC(C)C)nc2cc[nH]c12    > 10000 nM
CNC(=O)c1ccccc1Nc1nc(Nc2ccc(N3CCC(N4CCCC4)CC3)cc2OC)nc2cc[nH]c12    ~8710 nM

With those in mind, consider the next molecule.
GET IC50 where system = EML4-ALK-BaF3 (Homo sapiens, UniProt Q9UM73) and item = `CNC(=O)c1ccccc1Nc1nc(Nc2ccc(S(N)(=O)=O)cc2)nc2cc[nH]c12`
> 10000 nM
